B1: Nuclear receptor subfamily 4 group A member 2, residues 260 to 336; numbered along this chain, P43354 (parent)
chain: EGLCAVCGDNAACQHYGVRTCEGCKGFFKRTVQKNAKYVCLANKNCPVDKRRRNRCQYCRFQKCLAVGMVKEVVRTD

- Variants of: B1
- procedure_text: abundance fitness (aPCA) (normalised: wild type 0, dead -1); higher = more abundant; growth selection in yeast, the domain comes from the species named
- condition: Homo sapiens
Items are presented alongside their recorded abundance fitness.
Just the number, please, no unit attached.

residues	abundance fitness
EGLCAVCGDNAACQHYGVRTCEGCKGFFKRTVQKNAKYVCLALKNCPVDKRRRNRCQYCRFQKCLAVGMVKEVVRTD [N43L]	-0.059
EGLCAVCGDNAACQHYGVRTCEGCKGFFKRTVQKNAKYVCLANKNCPVDKRSRNRCQYCRFQKCLAVGMVKEVVRTD [R52S]	-0.31
EGLCAVCGDNAACQHYGVETCEGCKGFFKRTVQKNAKYVCLANKNCPVDKRRRNRCQYCRFQKCLAVGMVKEVVRTD [R19E]	0.064
EGLCAVCGDNAACQHYGVRTCEGCKGFFKRTVQKNAKYVCLANKNCPVDKRRRNRCQYCRFQKCLAVGMVKEVCRTD [V74C]	-0.098
EGLCAVCGDNAACQHYGVRTCEGCKCFFKRTVQKNAKYVCLANKNCPVDKRRRNRCQYCRFQKCLAVGMVKEVVRTD [G26C]	-0.138

Here is the next item to consider.
Q) Give its abundance fitness value. Item: EGLCAVCGDNAACQHYGVRTCEGCKGFFIRTVQKNAKYVCLANKNCPVDKRRRNRCQYCRFQKCLAVGMVKEVVRTD [K29I]
A) 0.214
